Parameter: IC50. Scope: all listed entries.
- Assay system: IL-17A/A (Homo sapiens)
- Sequence (Q16552 24-155): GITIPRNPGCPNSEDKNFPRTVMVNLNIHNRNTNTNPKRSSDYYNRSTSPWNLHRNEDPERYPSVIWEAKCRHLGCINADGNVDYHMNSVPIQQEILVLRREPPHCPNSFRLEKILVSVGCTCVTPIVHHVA
- Measurement notes: IL-17A/A HEK-Blue cell assay (SEAP reporter)
- Study conditions: HEK-Blue IL-17A reporter cells, IL17A/A 5 ng/mL, 20 hours, SEAP read at A630; read-out: HEK-Blue IL17AA (IC50 for IL-17A/A inhibition)
Outcome measure: IC50

| Compound | Assay system | Outcome measure | Reading |
| --- | --- | --- | --- |
| Cn1nccc1C(=O)N[C@H](c1cn2nc(C[C@H]3C[C@@H](C(F)(F)F)CNC3=O)c(C3CCOCC3)nc2n1)C(C1CC1)C1CC1 [Compound 320] | IL-17A/A (Homo sapiens) | IC50 | < 100 nM |
| CCn1nccc1C(=O)N[C@H](c1cn2nc(C[C@@H]3C(=O)NC4CC3C4)c(C3CCOCC3)nc2n1)C1CCC(F)(F)CC1 [Compound 425] | IL-17A/A (Homo sapiens) | IC50 | 100 to 1000 nM |
| CCn1nccc1C(=O)N[C@H](c1cn2nc(C[C@H]3C[C@@H](C(F)(F)F)CNC3=O)c(N3C[C@H](C)O[C@@H](C)C3)nc2n1)C1CCC(F)(F)CC1 [Compound 420] | IL-17A/A (Homo sapiens) | IC50 | < 100 nM |
| O=C(N[C@H](c1cn2nc(CC3C[C@@H](C(F)(F)F)CNC3=O)c(N3CCOCC3)nc2n1)C1CCC(F)(F)CC1)c1nonc1C1CC1 (single isomer, unassigned) [Compound 21] | IL-17A/A (Homo sapiens) | IC50 | < 100 nM |
| CCn1nccc1C(=O)N[C@H](c1cn2nc(C[C@H]3C[C@@H](C(F)(F)F)CNC3=O)c(N3C[C@@H](C)O[C@H](C)C3)nc2n1)C1CCC(F)(F)CC1 [Compound 241] | IL-17A/A (Homo sapiens) | IC50 | < 100 nM |
| CCn1nccc1C(=O)N[C@H](c1cn2nc(CC3C[C@@H](C(F)(F)F)CNC3=O)c(N3CCOCC3)nc2n1)C1CCC(F)(F)CC1 (single isomer, unassigned) [Compound 18] | IL-17A/A (Homo sapiens) | IC50 | < 100 nM |
| CCn1nccc1C(=O)N[C@H](c1cn2nc(C[C@H]3C[C@H](C(F)(F)F)CNC3=O)cnc2n1)C1CCC(F)(F)CC1 [Compound 52] | IL-17A/A (Homo sapiens) | IC50 | 100 to 1000 nM |
| CCn1ncnc1C(=O)N[C@H](c1cn2nc(C[C@H]3C[C@@H](C(F)(F)F)CNC3=O)c(C3CCS(=O)(=O)CC3)nc2n1)C1CCC(F)(F)CC1 [Compound 248] | IL-17A/A (Homo sapiens) | IC50 | < 100 nM |
| CCn1nccc1C(=O)N[C@H](c1cn2nc(C[C@H]3C[C@H](C(F)(F)F)CNC3=O)c(N3CCO[C@@H](C)C3)nc2n1)[C@@H]1CCCC(F)(F)C1 [Compound 306] | IL-17A/A (Homo sapiens) | IC50 | < 100 nM |
| O=C(N[C@H](c1cn2nc(C[C@H]3C[C@@H](C(F)(F)F)CNC3=O)cnc2n1)C1CCC(F)(F)CC1)c1conc1C(F)(F)F [Compound 42] | IL-17A/A (Homo sapiens) | IC50 | 100 to 1000 nM |
| O=C(N[C@H](c1cn2nc(C[C@H]3C[C@@H](C(F)(F)F)CNC3=O)c(C3CCOCC3)nc2n1)C1CCC(F)(F)CC1)c1nonc1OCC(F)(F)F [Compound 372] | IL-17A/A (Homo sapiens) | IC50 | < 100 nM |
| CCn1nccc1C(=O)N[C@H](c1cn2nc(C[C@@H]3CC(F)(F)CNC3=O)c(C3CCOCC3)nc2n1)C(C1CC1)C1CC1 [Compound 328] | IL-17A/A (Homo sapiens) | IC50 | < 100 nM |
